target: Cytochrome P450 2C19 (Homo sapiens, UniProt P33261); test: Inhibition of CYP2C19 (unknown origin); format: ADME
Sequence (P33261 whole entry): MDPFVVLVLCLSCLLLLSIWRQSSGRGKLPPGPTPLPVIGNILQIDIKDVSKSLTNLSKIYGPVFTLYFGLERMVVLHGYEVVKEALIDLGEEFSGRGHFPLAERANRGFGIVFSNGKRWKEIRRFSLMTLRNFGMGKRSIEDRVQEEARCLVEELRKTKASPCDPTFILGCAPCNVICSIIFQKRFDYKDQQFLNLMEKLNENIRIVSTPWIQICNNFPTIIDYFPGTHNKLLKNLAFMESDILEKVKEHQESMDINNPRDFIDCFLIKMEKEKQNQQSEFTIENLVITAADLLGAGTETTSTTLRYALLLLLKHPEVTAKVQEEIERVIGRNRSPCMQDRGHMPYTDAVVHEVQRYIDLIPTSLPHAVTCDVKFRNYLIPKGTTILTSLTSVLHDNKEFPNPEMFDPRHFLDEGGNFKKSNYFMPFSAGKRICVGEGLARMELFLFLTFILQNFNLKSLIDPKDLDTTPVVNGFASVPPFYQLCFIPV
Reported Metric: INH (µM)

* CC(C)(O)CNC(=O)c1nc(CC2CCCCC2)c(-c2cnc(S(=O)(=O)NC(C)(C)C)c3ccccc23)s1 | 7.6
* CC(C)(O)CNC(=O)c1nc(CC2CCCCC2)c(-c2ccc(S(=O)(=O)NC(C)(C)C)c(Cl)c2C(F)F)s1 | 5.6

---

target: 5-hydroxytryptamine receptor 1B (Rattus norvegicus)
Sequence (P28564 whole entry): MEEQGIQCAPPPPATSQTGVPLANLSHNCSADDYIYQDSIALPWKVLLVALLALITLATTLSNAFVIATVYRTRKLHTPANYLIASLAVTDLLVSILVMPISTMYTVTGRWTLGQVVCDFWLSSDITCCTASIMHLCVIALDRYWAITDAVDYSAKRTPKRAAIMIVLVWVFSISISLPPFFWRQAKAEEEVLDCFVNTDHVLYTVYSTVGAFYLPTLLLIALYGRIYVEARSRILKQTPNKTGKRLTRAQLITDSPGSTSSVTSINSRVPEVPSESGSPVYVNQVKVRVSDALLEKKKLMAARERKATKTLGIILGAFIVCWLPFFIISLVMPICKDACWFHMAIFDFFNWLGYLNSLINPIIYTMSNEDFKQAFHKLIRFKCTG
Reported Metric: IC50 (µM)
Give the quantity in µM, number only.

[ask] Could you share which IC50 value was measured for "CC(C)(C)NS(=O)(=O)c1ccc(-c2sc(C(=O)N[C@H]3C[C@H](C(=O)O)C3)nc2CC2CCCCC2)c2ccccc12" ?
[reply] 0.014

---

biological target: Muscarinic acetylcholine receptor M1 (Homo sapiens); test: Displacement of […] from human recombinant M1 receptor after 60 mins by scintillation counting analysis
Sequence (P11229 whole entry): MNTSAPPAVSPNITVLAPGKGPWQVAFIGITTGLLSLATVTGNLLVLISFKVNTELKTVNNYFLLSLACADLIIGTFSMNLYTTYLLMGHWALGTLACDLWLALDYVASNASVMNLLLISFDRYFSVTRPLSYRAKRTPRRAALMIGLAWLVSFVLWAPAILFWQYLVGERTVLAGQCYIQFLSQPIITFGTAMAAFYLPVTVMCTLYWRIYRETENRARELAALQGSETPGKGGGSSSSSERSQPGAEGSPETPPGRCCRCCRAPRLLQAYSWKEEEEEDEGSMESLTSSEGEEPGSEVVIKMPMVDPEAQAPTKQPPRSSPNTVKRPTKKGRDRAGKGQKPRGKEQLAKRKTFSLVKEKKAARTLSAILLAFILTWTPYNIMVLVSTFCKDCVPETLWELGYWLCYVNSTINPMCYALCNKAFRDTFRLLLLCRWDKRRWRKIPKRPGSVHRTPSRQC
Reported Metric: IC50 (nM)
Give the quantity in nM, number only.

[ask] // fetch Muscarinic acetylcholine receptor M1 (Homo sapiens) IC50 for "CC(C)(C)NS(=O)(=O)c1ccc(-c2sc(C(=O)N[C@H]3C[C@H](C(=O)O)C3)nc2CC2CCCCC2)c2ccccc12"
[reply] 18

---

Target: C-X-C chemokine receptor type 2 (Homo sapiens, UniProt P25025)
Sequence (P25025 whole entry): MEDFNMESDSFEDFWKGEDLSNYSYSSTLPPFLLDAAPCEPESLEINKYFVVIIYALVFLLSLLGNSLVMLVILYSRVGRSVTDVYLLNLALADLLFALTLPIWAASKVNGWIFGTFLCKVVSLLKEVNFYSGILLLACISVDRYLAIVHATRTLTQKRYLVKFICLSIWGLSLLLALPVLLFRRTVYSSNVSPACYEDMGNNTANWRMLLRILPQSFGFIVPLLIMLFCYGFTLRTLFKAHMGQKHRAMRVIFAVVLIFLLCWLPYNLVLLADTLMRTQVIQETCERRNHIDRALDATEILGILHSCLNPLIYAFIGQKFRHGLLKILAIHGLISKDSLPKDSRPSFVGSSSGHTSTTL
Assay: Displacement of [125I]IL-8 from human recombinant CXCR2 receptor after 60 mins by scintillation counting analysis
Reported Metric: pIC50
When answering, recall that pIC50 equals minus log10 of the concentration in mol/L, and write that number alone.

[ask] Could you share which pIC50 value was measured for "CC(C)(C)NS(=O)(=O)c1ccc(-c2sc(C(=O)N[C@H]3C[C@H](C(=O)O)C3)nc2CC2CCCCC2)c2ccccc12" ?
[reply] 9.62

---

test: Half life in rat microsomes; assay type: ADME, Microsome
Reported Metric: half-life (min)

- CC(C)(C)NS(=O)(=O)c1ccc(-c2sc(C(=O)N[C@H]3C[C@H](C(=O)O)C3)nc2CC2CCCCC2)c2c1CCCC2: 22

a: CC(C)(C)NS(=O)(=O)c1ccc(-c2sc(C(=O)NCCN3CCOCC3)nc2CC2CCCCC2)c2ccccc12
b: CC(C)(C)NS(=O)(=O)c1ccc(-c2sc(C(=O)N3CC4(C3)CS(=O)(=O)C4)nc2CC2CCCCC2)c(Cl)c1Cl
[ask] Could you point out whether the larger half-life belongs to a or to b ? Bench note: the answer is the label of the chosen record.
[reply] b
(b: 55 min, a: 5.1 min)

I: CCC(C)(C)NS(=O)(=O)c1ccc(-c2sc(C(=O)N[C@H]3C[C@H](C(=O)O)C3)nc2CC2CCCCC2)c(Cl)c1C
II: CC(C)(O)CNC(=O)c1nc(CC2CCCCC2)c(-c2cnc(S(=O)(=O)NC(C)(C)C)c3ccccc23)s1
III: Cc1c(S(=O)(=O)NC(C)(C)C)ccc(-c2sc(C(=O)N[C@H]3C[C@H](C(=O)O)C3)nc2CC2CCCCC2)c1OC(F)F
IV: CC(C)(C)NS(=O)(=O)c1ccc(-c2sc(C(=O)N[C@H]3C[C@H](C(=O)O)C3)nc2CC2CCCCC2)c(Cl)c1
V: CC(C)(O)CNC(=O)c1nc(CC2CCCCC2)c(-c2ccc(S(=O)(=O)NC(C)(C)C)c(Cl)c2C(F)F)s1
[ask] List from greatest to least half-life. // respond by listing labels in the order requested
[reply] IV, I, III, V, II
(IV: 73 min, I: 44 min, III: 26 min, V: 14 min, II: 5.2 min)

I: C[C@H](NS(=O)(=O)c1ccc(-c2sc(C(=O)NCC(C)(C)O)nc2CC2CC2)c2ccccc12)C(F)(F)F
II: C[C@H](NC(=O)c1cc(-c2sc(C(=O)N[C@H]3C[C@H](C(=O)O)C3)nc2CC2CCCCC2)cc(C2(C)CC2)c1)C(F)(F)F
[ask] I would appreciate it if you could say which entry, I or II , has the lower half-life value. Bench note: the answer is the label of the chosen record.
[reply] I
(I: 54 min, II: 150 min)

a: CC(C)(C)NS(=O)(=O)c1ncc(-c2sc(C(=O)N[C@H]3C[C@H](C(=O)O)C3)nc2CC2CCCCC2)c2ccccc12
b: CC(C)(O)CNC(=O)c1nc(CC2CCCCC2)c(-c2ccc(S(=O)(=O)NC3(C#N)CC3)c3ccccc23)s1
[ask] Could you point out whether the larger half-life belongs to a or to b ? Bench note: the answer is the label of the chosen record.
[reply] a

I: CC(C)NS(=O)(=O)c1ccc(-c2sc(C(=O)N[C@H]3C[C@H](C(=O)O)C3)nc2CC2CCCCC2)c(C(F)F)c1Cl
II: C[C@H](NS(=O)(=O)c1ccc(-c2sc(C(=O)NCC(C)(C)O)nc2CC2CCC2)c(C(F)F)c1)C(F)(F)F
III: C[C@H](NS(=O)(=O)c1ccc(-c2sc(C(=O)NC3CCS(=O)(=O)CC3)nc2CC2CC2)c2ccccc12)C(F)(F)F
[ask] List from greatest to least half-life. // respond by listing labels in the order requested
[reply] III, I, II

---

target: UniProt:P28223; test: Displacement of [3H]ketanserin human recombinant 5-HT2A receptor after 60 mins by scintillation counting analysis
Sequence (P28223 whole entry): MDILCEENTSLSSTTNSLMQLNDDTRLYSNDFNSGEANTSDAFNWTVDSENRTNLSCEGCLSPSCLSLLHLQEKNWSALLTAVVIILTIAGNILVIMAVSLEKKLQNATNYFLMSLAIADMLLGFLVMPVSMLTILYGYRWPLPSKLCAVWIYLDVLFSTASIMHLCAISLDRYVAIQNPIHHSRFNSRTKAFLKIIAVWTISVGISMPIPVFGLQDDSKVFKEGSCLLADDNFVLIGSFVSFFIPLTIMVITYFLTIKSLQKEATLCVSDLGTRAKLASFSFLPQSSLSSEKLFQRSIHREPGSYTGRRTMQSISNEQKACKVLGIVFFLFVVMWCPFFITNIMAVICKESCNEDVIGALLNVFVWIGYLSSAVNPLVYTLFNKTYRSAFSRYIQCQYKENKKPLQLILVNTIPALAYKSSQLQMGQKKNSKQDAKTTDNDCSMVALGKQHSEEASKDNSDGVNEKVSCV
Reported Metric: IC50 (nM)
Give the quantity in nM, number only.

[ask] // fetch UniProt:P28223 IC50 for "CC(C)(C)NS(=O)(=O)c1ccc(-c2sc(C(=O)N[C@H]3C[C@H](C(=O)O)C3)nc2CC2CCCCC2)c2ccccc12"
[reply] 0.64

---

Target: PXR (NR1I2) (Homo sapiens)
Sequence (O75469 whole entry): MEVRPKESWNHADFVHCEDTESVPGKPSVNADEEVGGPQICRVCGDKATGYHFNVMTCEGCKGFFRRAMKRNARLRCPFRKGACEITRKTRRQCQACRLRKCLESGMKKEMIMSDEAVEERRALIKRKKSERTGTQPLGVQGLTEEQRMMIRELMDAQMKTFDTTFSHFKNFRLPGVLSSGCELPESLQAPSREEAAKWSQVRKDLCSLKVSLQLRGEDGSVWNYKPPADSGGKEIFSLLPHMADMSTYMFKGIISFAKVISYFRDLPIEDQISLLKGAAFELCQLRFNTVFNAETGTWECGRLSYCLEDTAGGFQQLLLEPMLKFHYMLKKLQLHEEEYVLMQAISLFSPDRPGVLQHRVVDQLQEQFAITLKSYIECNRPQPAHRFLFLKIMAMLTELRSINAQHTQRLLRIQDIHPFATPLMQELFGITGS
Assay: […] at PXR LBD (unknown origin) expressed in HEK293 cells […] at 5 uM after 16 hrs by luciferase reporter gene assay relative to rifampicin
Assay type: ADME, cell-based
Settings: HEK293 cells expressing PXR LBD, read-out: Efficacy
Reported Metric: Emax at 16 h, 5 µM (%)

Worked cases, Emax at 16 h, 5 µM given:
• CC(C)NS(=O)(=O)c1ccc(-c2sc(C(=O)N[C@H]3C[C@H](C(=O)O)C3)nc2CC2CCCCC2)c(C(F)F)c1Cl = 113
• CC(C)(O)CNC(=O)c1nc(CC2CCCCC2)c(-c2ccc(S(=O)(=O)NC(C)(C)C)c3ccccc23)s1 = 116
• C[C@H](NS(=O)(=O)c1cc(-c2sc(C(=O)N[C@H]3C[C@H](C(=O)O)C3)nc2CC2CCCCC2)cc(C(C)(C)C)c1)C(F)(F)F = 159
• C[C@H](NS(=O)(=O)c1ccc(-c2sc(C(=O)NCC(C)(C)O)nc2CC2CCC2)c(C(F)F)c1)C(F)(F)F = 144
• C[C@H](NS(=O)(=O)c1ccc(-c2sc(C(=O)NCC(C)(C)O)nc2Cc2ccc(F)cc2)c(Cl)c1Cl)C(F)(F)F = 134

P: C[C@H](NS(=O)(=O)c1ccc(-c2sc(C(=O)NC3CCS(=O)(=O)CC3)nc2CC2CC2)c2ccccc12)C(F)(F)F
Q: C[C@H](NC(=O)c1cc(-c2sc(C(=O)N[C@H]3C[C@H](C(=O)O)C3)nc2CC2CCCCC2)cc(C(C)(C)C)c1)C(F)(F)F
[ask] I would appreciate it if you could say which entry, P or Q , has the lower Emax at 16 h, 5 µM value. Bench note: the answer is the label of the chosen record.
[reply] Q
(Q: 59%, P: 131%)

FYI, the data here is from ChEMBL document CHEMBL4118122.
